Reference source: PubChem BioAssay AID256

Kindly state T/C for each of the entries shown.
Tested on: CD2F1 mice, L1210 leukemia ip, survival T/C
method-summary: NCI In Vivo Anticancer Drug Screen. Data for tumor model L1210 Leukemia (intraperitoneal) in CD2F1 (CDF1) mice
condition-summary: endpoint: median survival time; dose: 200.0 mg/kg/injection; schedule: Q01DX009 (ip); vehicle: Klucel (hydroxypropylcellulose) (HPC); higher = longer survival
Inconclusive results and toxic doses are left out.

// Input: CN(C)c1ccc2c(SCC(=O)OCC(=O)[C@@]3(O)CC[C@H]4[C@@H]5CCC6=CC(=O)C=C[C@]6(C)[C@H]5C(=O)C[C@@]43C)c3ccc(N(C)C)cc3nc2c1 . Output its T/C only.
108 % of control

// Input: O=C1CNC(=O)N1CN1CCOCC1 . Output its T/C only.
116 % of control

// Input: Clc1ccc(C2SC=Cc3ccccc32)cc1 (centres undefined) . Output its T/C only.
104 % of control

// Input: O=c1nc(-c2ccco2)sc(=O)[nH]1 . Output its T/C only.
102 % of control

====

Tested on: CD2F1 mice, L1210 leukemia ip, survival T/C
method-summary: NCI In Vivo Anticancer Drug Screen. Data for tumor model L1210 Leukemia (intraperitoneal) in CD2F1 (CDF1) mice
condition-summary: endpoint: mean survival time; dose: 50.0 mg/kg/injection; schedule: Q01DX005 (ip); vehicle: water; higher = longer survival
Inconclusive results and toxic doses are left out.
measured-property: T/C

Lab note: record T/C of OCC1OC(n2ncc3c2nnn2ncnc32)C(O)C1O (stereo not given) tested on CD2F1 mice, L1210 leukemia ip, survival T/C.
99 % of control

Lab note: record T/C of Cc1cn(C2OC(CO)C(O)C2O)c([Se])nc1=O (stereo not given) tested on CD2F1 mice, L1210 leukemia ip, survival T/C.
97 % of control

Lab note: record T/C of NC(=O)c1cc(C(N)=O)n(C2OC(CO)C(O)C2O)n1 (stereo not given) tested on CD2F1 mice, L1210 leukemia ip, survival T/C.
92 % of control

Lab note: record T/C of Cn1c(=O)c2c(ncn2CCSS(=O)(=O)O)n(C)c1=O tested on CD2F1 mice, L1210 leukemia ip, survival T/C.
102 % of control

Lab note: record T/C of Cc1cn(C2CC3OP(=O)(N(C)C)OCC3O2)c(=O)[nH]c1=O (stereo not given) tested on CD2F1 mice, L1210 leukemia ip, survival T/C.
109 % of control

====

System: CD2F1 mice, L1210 leukemia ip, survival T/C
method-summary: NCI In Vivo Anticancer Drug Screen. Data for tumor model L1210 Leukemia (intraperitoneal) in CD2F1 (CDF1) mice
condition-summary: endpoint: mean survival time; dose: 400.0 mg/kg/injection; schedule: Q04DX003 (ip); vehicle: saline with Tween-80; higher = longer survival
Inconclusive results and toxic doses are left out.
measured-property: T/C

// Input: CCCCCCCCCCCCCCCCOc1ccc(S(=O)(=O)NC2CCCCC2)cc1N . Output its T/C only.
96 % of control

// Input: C=C/C(C)=N/Nc1ccc([N+](=O)[O-])cc1[N+](=O)[O-] . Output its T/C only.
95 % of control

// Input: CCC(C)(C)C(=O)O . Output its T/C only.
105 % of control

// Input: CC(CP(=O)(c1ccccc1)c1ccccc1)C(=O)O (configuration not stated) . Output its T/C only.
101 % of control

// Input: Clc1c(Cl)c(Cl)c(Cl)c(Cl)c1Cl . Output its T/C only.
102 % of control

// Input: CC(CC(=O)Nc1ccccc1)C(=O)O (configuration not stated) . Output its T/C only.
106 % of control

// Input: Nc1ccc2sccc2c1 . Output its T/C only.
101 % of control
